So I've got a bunch of binders here, and I need their Normalized Binding Signal, 300 nM values.
Molecular target: T1, recombinant cyno Tie2 extracellular domain (cynomolgus monkey, UniProt Q02763 23-748 (human entry))
T1 construct: also called Recombinant cyno Tie2 ECD; cy Tie2
T1 chain: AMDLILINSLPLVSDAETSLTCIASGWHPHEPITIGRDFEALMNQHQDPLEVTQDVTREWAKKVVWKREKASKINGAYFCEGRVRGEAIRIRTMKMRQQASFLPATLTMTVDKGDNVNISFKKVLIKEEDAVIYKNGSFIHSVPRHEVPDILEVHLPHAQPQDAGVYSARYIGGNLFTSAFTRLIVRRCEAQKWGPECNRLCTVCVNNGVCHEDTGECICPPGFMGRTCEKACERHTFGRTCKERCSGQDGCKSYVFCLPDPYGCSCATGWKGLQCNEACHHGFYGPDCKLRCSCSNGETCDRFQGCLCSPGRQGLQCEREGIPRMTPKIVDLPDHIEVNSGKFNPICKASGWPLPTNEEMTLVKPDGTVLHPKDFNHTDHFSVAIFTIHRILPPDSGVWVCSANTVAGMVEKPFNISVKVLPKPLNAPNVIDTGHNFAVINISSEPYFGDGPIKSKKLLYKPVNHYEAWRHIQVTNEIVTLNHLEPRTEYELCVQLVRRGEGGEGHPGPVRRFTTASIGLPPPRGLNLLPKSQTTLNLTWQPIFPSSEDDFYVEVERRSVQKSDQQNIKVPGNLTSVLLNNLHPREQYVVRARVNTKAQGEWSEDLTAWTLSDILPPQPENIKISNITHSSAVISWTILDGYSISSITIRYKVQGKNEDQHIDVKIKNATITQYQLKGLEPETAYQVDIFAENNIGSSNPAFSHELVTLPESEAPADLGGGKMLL
Test: SPR, IgG captured, 37C
Protocol: A human antibody capture chip was prepared using a Series S CM5 chip (GE Life Sciences), a human antibody capture kit (GE Life Sciences) and an amine coupling kit (GE Life Sciences). […] Binding to 300 nM and 1500 nM recombinant Tie2 was analyzed at 37° C. using a Single Cycle Kinetics method with a contact time of 60 seconds, a dissociation time of 120 seconds and a flow rate of 50 μl/min. […]
Could you respond with only the numeric value?

Recorded Normalized Binding Signal, 300 nM for Tie2.1.M100cN (antibody, IgG1, name in Kabat numbering, V domains shown, hIgG1) VH: EVQLVESGGGLVQPGGSLRLSCAASGFTFSNTDISWVRQAPGKGLEWVGRISPSDGNTYYADSVKGRFTISADTSKNTAYLQMNSLRAEDTAVYYCARRTRWASWANDYWGQGTLVTVSS VL: DIQMTQSPSSLSASVGDRVTITCRASQDVSTAVAWYQQKPGKAPKLLIYSASFLYSGVPSRFSGSGSGTDFTLTISSLQPEDFATYYCQQSYTTPPTFGQGTKVEIKR , please?
0.1

Recorded Normalized Binding Signal, 300 nM for Tie2.1.M100cT (antibody, IgG1, name in Kabat numbering, V domains shown, hIgG1) VH: EVQLVESGGGLVQPGGSLRLSCAASGFTFSNTDISWVRQAPGKGLEWVGRISPSDGNTYYADSVKGRFTISADTSKNTAYLQMNSLRAEDTAVYYCARRTRWASWATDYWGQGTLVTVSS VL: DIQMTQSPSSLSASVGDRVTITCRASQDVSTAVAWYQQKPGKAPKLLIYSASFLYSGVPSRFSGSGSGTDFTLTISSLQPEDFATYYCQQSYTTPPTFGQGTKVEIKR , please?
0.02

Recorded Normalized Binding Signal, 300 nM for Tie2.1.M100cP (antibody, IgG1, name in Kabat numbering, V domains shown, hIgG1) VH: EVQLVESGGGLVQPGGSLRLSCAASGFTFSNTDISWVRQAPGKGLEWVGRISPSDGNTYYADSVKGRFTISADTSKNTAYLQMNSLRAEDTAVYYCARRTRWASWAPDYWGQGTLVTVSS VL: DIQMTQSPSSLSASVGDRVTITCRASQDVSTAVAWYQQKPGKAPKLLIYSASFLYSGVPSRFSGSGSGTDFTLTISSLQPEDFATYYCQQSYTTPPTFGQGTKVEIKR , please?
0.02
